Reference for the values: paper PMC3824017

Molecular target: erlin-2 (native erlin-1/2 complex) (Mus musculus, UniProt Q8BFZ9+Q91X78)
Sequence (Q8BFZ9 whole entry): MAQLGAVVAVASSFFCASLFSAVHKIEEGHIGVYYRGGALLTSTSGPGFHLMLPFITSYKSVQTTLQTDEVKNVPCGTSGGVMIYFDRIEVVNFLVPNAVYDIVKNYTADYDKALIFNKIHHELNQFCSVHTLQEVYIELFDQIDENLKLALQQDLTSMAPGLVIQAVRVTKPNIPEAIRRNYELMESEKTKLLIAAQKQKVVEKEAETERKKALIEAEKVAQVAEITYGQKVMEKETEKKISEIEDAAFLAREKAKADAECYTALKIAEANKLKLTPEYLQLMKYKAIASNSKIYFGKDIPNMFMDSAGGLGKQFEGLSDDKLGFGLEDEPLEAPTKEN
Sequence (Q91X78 whole entry): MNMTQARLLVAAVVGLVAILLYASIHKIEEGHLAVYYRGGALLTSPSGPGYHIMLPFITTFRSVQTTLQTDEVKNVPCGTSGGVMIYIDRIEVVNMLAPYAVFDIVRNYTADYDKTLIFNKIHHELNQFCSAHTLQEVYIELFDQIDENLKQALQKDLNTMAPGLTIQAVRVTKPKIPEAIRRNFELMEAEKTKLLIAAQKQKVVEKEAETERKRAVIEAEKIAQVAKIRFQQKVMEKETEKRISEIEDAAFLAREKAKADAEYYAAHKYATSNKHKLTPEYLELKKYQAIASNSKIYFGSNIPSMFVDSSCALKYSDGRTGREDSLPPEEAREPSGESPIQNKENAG
Format: binding
outcome.measure: pKd
Quick note: pKd values are minus log10 of concentrations in mol/L.

Need pKd, item CC(C)CCC[C@@H](C)[C@H]1CC[C@H]2[C@@H]3CC=C4C[C@@H](O)CC[C@]4(C)[C@H]3CC[C@]12C 4.87
